Target: MurD (UniProt P14900)
Sequence (P14900 whole entry): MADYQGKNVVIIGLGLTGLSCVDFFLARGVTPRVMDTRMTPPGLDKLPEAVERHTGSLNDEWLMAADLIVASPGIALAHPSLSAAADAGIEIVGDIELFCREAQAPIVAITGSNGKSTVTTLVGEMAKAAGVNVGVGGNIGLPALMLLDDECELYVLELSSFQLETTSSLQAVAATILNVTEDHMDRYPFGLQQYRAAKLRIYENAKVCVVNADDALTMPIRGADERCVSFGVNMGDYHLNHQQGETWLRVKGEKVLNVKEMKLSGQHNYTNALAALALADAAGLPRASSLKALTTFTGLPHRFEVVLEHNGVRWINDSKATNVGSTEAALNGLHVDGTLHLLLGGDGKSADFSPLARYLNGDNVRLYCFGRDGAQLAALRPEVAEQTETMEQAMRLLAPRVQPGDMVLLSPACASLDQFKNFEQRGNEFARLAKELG
Assay: relative enzymatic activity vs untreated control (fraction); higher = less inhibition
Conditions: 100 µM; incubation time: 2 h at 37 C
RESULT_TYPE: relative enzymatic activity

1) O=C1C=C2C(=CCOC2O)O1 (stereo not drawn)
0.611
2) CNC1C(O)C(OC2C(N)CC(N)C(OC3OC(C(C)O)C(O)C(O)C3N)C2O)OCC1(C)O (stereo not drawn)
0.592
3) CN(C)[C@@H]1C(=O)[C@H](C(N)=O)C(=O)[C@@]2(O)C(=O)[C@@H]3C(=O)c4c(O)cccc4[C@@](C)(O)[C@H]3C[C@@H]12
0.603

Recorded values, source the supplement of paper PMC9446081.
